Entry source: patent US20080261994A1

- assayedTarget: MMP-1 (Homo sapiens, UniProt P03956)
- Sequence (P03956 100-469, species assumed): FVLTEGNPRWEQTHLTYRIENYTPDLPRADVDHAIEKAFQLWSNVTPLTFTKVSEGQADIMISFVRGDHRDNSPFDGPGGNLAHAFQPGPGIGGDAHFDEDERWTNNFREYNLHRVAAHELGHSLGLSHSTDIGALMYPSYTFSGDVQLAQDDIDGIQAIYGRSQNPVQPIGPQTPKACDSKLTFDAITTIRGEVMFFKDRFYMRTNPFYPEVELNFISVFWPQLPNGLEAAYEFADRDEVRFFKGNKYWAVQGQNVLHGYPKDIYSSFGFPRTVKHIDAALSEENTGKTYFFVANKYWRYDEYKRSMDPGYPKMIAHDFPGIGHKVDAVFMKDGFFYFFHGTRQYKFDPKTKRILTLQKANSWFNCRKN
- assayText: MMP-1 inhibitory action (Type I collagen Activity Measurement kit, FITC-labeled collagen type I)
- Format: biochemical
- testSettings: Experimental Example 2; read-out: IC50 MMP1
Parameter IC50: see the listing below.

Completed entries (count: 6):
{"molecule": "C[C@]1(c2ccccc2)C[C@@]1(NS(=O)(=O)c1ccc(-c2ccc(F)cn2)s1)C(=O)O [Example 2-416]", "attributeMeasured": "IC50", "endpointResult": "≥ 1000 nM"}
{"molecule": "Cc1nc2cc(N3CCN(S(=O)(=O)N[C@@]4(C(=O)O)C(C)[C@@H]4c4ccccc4)CC3)ccc2s1 (stereo partly shown) [Example 2-483]", "attributeMeasured": "IC50", "endpointResult": "≥ 10000 nM"}
{"molecule": "CC1[C@H](c2ccccc2)[C@]1(NS(=O)(=O)N1CCCN(c2ccc(F)cn2)CC1)C(=O)O (stereo partly shown) [Example 2-462]", "attributeMeasured": "IC50", "endpointResult": "≥ 1000 nM"}
{"molecule": "C[C@]1(c2ccccc2)C[C@@]1(NS(=O)(=O)c1ccc(-c2ccc(Cl)c(F)c2)s1)C(=O)O [Example 2-434]", "attributeMeasured": "IC50", "endpointResult": "≥ 1000 nM"}
{"molecule": "O=C(O)C1(NS(=O)(=O)c2ccc(-c3ccc(Cl)cc3)s2)C2CCC(O)c3ccccc3C21 (stereo not shown) [Example 2-411]", "attributeMeasured": "IC50", "endpointResult": "< 1000 nM"}
{"molecule": "CC1[C@H](c2ccccc2)[C@]1(NS(=O)(=O)c1ccc(-c2cc(C(F)(F)F)on2)s1)C(=O)NO (stereo partly shown) [Example 2-323]", "attributeMeasured": "IC50", "endpointResult": "≥ 1000 nM"}

For record CC1(C)C(c2ccccc2)C1(NS(=O)(=O)c1ccc(-c2ccc(Cl)cc2)s1)C(=O)O (stereo not shown) [Example 2-274] the listed IC50 is ≥ 10000 nM

----------
- assayedTarget: Recombinant Human MMP-13 (Homo sapiens, UniProt P45452)
- Construct: purchased R&D systems 511-MM
- assayText: MMP-13 inhibitory activity (MMP-13 specific fluorescent substrate with quencher)
- Format: biochemical
- testSettings: Experimental Example 3; read-out: IC50 MMP13
attributeMeasured: IC50

{"molecule": "CC1[C@H](c2ccccc2)[C@]1(NS(=O)(=O)c1cn2cc(-c3ccccc3)nc2s1)C(=O)O (stereo partly drawn)", "assayedTarget": "Recombinant Human MMP-13 (Homo sapiens, UniProt P45452)", "IC50": "< 100 nM"}
{"molecule": "Cc1cc(C2CC2(NS(=O)(=O)c2ccc(-c3cc(C(F)(F)F)on3)s2)C(=O)O)no1 (stereo not drawn) [Example 2-314]", "assayedTarget": "Recombinant Human MMP-13 (Homo sapiens, UniProt P45452)", "IC50": "≥ 10000 nM"}
{"molecule": "CC1[C@H](c2ccccc2)[C@]1(NS(=O)(=O)c1ccc(-c2cc(C(F)(F)F)on2)s1)C(=O)NO (stereo partly drawn)", "assayedTarget": "Recombinant Human MMP-13 (Homo sapiens, UniProt P45452)", "IC50": "< 100 nM"}
{"molecule": "NCc1ccc([C@@H]2C[C@]2(NS(=O)(=O)c2ccc(-c3cc(C(F)(F)F)on3)s2)C(=O)O)cc1", "assayedTarget": "Recombinant Human MMP-13 (Homo sapiens, UniProt P45452)", "IC50": "< 1000 nM"}
{"molecule": "COc1ccc2[nH]c(-c3ccc(S(=O)(=O)N[C@@]4(C(=O)O)C(C)[C@@H]4c4ccccc4)s3)nc2c1 (stereo partly drawn)", "assayedTarget": "Recombinant Human MMP-13 (Homo sapiens, UniProt P45452)", "IC50": "< 100 nM"}

For record Cc1cnc(N2CCN(S(=O)(=O)N[C@@]3(C(=O)O)C(C)[C@@H]3c3ccccc3)CC2)s1 (stereo partly drawn) the listed IC50 is < 1000 nM

For record CC1C(c2ccccc2)C1(NS(=O)(=O)c1ccc(Cc2ccccc2)s1)C(=O)O (stereo not drawn) the listed IC50 is ≥ 1000 nM

For record CC1(c2ccc(Cl)cc2)CC1(NS(=O)(=O)c1ccc(-c2cc(C(F)(F)F)on2)s1)C(=O)O (stereo not drawn) the listed IC50 is < 1000 nM

----------
Parameter pIC50: see the listing below.
- assayedTarget: aggrecanase-1 (Homo sapiens, UniProt O75173)
- assayText: Aggrecanase-1 inhibitory action (Particle Assay, GAG release from aggrecan-containing polyacrylamide particles)
- Format: biochemical
- testSettings: Experimental Example 1; read-out: IC50 AG1
pIC50: −log10 of the molar value.

Completed entries (count: 6):
{"molecule": "C[C@]1(c2ccccc2)C[C@@]1(NS(=O)(=O)c1ccc(/C=C\\C(F)(F)F)s1)C(=O)O [Example 2-563]", "assayedTarget": "aggrecanase-1 (Homo sapiens, UniProt O75173)", "attributeMeasured": "pIC50", "endpointResult": "≤ 6.00"}
{"molecule": "O=C(O)C1(NS(=O)(=O)c2ccc(-c3cc(C(F)(F)F)on3)s2)CC1c1cc(CO)on1 (stereo not shown) [Example 2-318]", "assayedTarget": "aggrecanase-1 (Homo sapiens, UniProt O75173)", "attributeMeasured": "pIC50", "endpointResult": "≤ 6.00"}
{"molecule": "CC1[C@H](c2ccccc2)[C@]1(NS(=O)(=O)c1ccc(-c2cc(C(F)(F)F)on2)s1)C(=O)NO (stereo partly shown) [Example 2-323]", "assayedTarget": "aggrecanase-1 (Homo sapiens, UniProt O75173)", "attributeMeasured": "pIC50", "endpointResult": "≤ 6.00"}
{"molecule": "COCC1C(c2ccccc2)C1(NS(=O)(=O)c1ccc(-c2cc(C(F)(F)F)on2)s1)C(=O)O (stereo not shown) [Example 2-539]", "assayedTarget": "aggrecanase-1 (Homo sapiens, UniProt O75173)", "attributeMeasured": "pIC50", "endpointResult": "> 7.00"}
{"molecule": "CC(C)Nc1ccc2c(c1)CN(S(=O)(=O)N[C@@]1(C(=O)O)C(C)[C@@H]1c1ccccc1)C2 (stereo partly shown) [Example 2-552]", "assayedTarget": "aggrecanase-1 (Homo sapiens, UniProt O75173)", "attributeMeasured": "pIC50", "endpointResult": "≤ 6.00"}
{"molecule": "CC1[C@H](c2ccccc2)[C@]1(NS(=O)(=O)N1CCN(c2nc3ccccc3s2)CC1)C(=O)O (stereo partly shown) [Example 2-463]", "assayedTarget": "aggrecanase-1 (Homo sapiens, UniProt O75173)", "attributeMeasured": "pIC50", "endpointResult": "≤ 6.00"}

For record C[C@]1(c2ccccc2)C[C@@]1(NS(=O)(=O)c1ccc(-c2ccc(F)cn2)s1)C(=O)O [Example 2-416] the listed pIC50 is > 6.00

----------
Parameter IC50: see the listing below.
- assayedTarget: aggrecanase-1 (Homo sapiens)
- Sequence (O75173 213-837): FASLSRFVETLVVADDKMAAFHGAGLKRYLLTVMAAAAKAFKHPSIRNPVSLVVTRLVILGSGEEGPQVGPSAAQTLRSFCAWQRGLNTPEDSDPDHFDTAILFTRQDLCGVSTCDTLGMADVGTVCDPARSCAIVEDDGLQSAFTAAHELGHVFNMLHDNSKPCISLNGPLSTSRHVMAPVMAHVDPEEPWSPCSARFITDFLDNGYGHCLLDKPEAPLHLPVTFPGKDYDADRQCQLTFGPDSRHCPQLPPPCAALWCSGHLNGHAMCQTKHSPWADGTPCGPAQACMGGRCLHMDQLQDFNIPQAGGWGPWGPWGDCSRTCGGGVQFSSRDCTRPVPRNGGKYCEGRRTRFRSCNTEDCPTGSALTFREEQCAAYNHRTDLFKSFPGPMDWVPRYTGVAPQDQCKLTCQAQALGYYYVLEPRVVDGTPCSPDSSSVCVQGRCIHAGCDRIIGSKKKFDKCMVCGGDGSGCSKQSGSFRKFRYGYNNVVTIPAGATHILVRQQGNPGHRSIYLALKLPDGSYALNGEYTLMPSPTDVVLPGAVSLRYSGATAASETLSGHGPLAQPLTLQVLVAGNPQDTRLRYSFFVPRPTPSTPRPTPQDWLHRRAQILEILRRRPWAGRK
- assayText: Aggrecanase-1 inhibitory action (Particle Assay, GAG release from aggrecan-containing polyacrylamide particles)
- Type: biochemical
- testSettings: Experimental Example 1; read-out: IC50 AG1

Completed entries (count: 2):
{"structureAsSmiles": "O=C(Nc1ccc(S(=O)(=O)N[C@@]2(C(=O)O)C[C@@H]2c2ccccc2)cc1)c1ccccc1", "IC50": "≥ 1 µM"}
{"structureAsSmiles": "C[C@]1(c2ccccc2)C[C@@]1(NS(=O)(=O)c1ccc(-c2ccc(F)c(C#N)c2)s1)C(=O)O", "IC50": "≥ 1 µM"}

For record C[C@]1(c2ccccc2)C[C@@]1(NS(=O)(=O)c1ccc(-c2ncc(Br)cn2)s1)C(=O)O the listed IC50 is < 1 µM

For record O=C(O)[C@]1(NS(=O)(=O)c2ccc(-c3ccc([N+](=O)[O-])cc3)s2)C[C@@H]1c1ccccc1 the listed IC50 is < 1 µM
